- Test system: U2OS
- MEASUREMENT NOTES: Incucyte cell viability with U2OS; also: unitless GR value; below 1 slowed growth and below 0 cell loss
- Assay type: toxicity, cell-based
- CONDITION INFO: human, 0 h, 10 µM, compound concentration 10 uM, replicate number 1, timepoint 0 hours
RESULT TYPE: Growth Rate
// keep it numeric: no unit symbol after the value

Worked examples follow.
O=S(=O)(c1ccccc1)N(CC(F)(F)F)c1ccc(C(O)(C(F)(F)F)C(F)(F)F)cc1 [T091317]: 0.14
C[S+](C)[O-] [DIMETHYL SULFOXIDE]: 0.71
Cc1sc2c(c1C)C(c1ccc(Cl)cc1)=N[C@@H](CC(=O)NCCCCCCCCNC(=O)COc1cccc3c1C(=O)N(C1CCC(=O)NC1=O)C3=O)c1nnc(C)n1-2 (some centres undefined): -0.31
COc1ccc2c(c1)C(C(=O)N(Cc1ccc(N(C)C)cc1)c1ccc(C(C)C)cc1)CCC2.Cl (centres undefined): -0.58
C[C@@H]1CN(Cc2ccc(F)cc2)CCN1C(=O)COc1ccc(Cl)cc1NC(N)=O [BX 471 FREE BASE]: -0.96

In plain terms, Cc1cccc(S(=O)(=O)N(C)[C@H](C)CCN2CCC(C)CC2)c1.Cl has a documented Growth Rate of 0.29

Entry O=C(NCCN1CCC(n2c(=O)[nH]c3cc(Cl)ccc32)CC1)c1ccc(F)cc1 [HALOPEMIDE] ; Growth Rate = 0.7

Record CCC(=O)OCC(=O)[C@@]1(OC(=O)CC)[C@@H](C)C[C@H]2[C@@H]3CCC4=CC(=O)C=C[C@]4(C)[C@@]3(Cl)[C@@H](O)C[C@@]21C [BECLOMETHASONE DIPROPIONATE] . Reported Growth Rate: -0.25

// Growth Rate lookup, compound = O=c1ccn([C@@H]2O[C@H](COP(=O)([O-])OP(=O)([O-])OP(=O)([O-])O)[C@@H](O)[C@H]2O)c(=O)[nH]1.[Na+].[Na+].[Na+] , result: 0.49

---

Collected Growth Rate values appear next to each entry.
- Tested on: HEK-293T
- MEASUREMENT NOTES: Incucyte cell viability with HEK293T; also: unitless GR value; below 1 slowed growth and below 0 cell loss
- Assay type: toxicity, cell-based
- CONDITION INFO: human, 18 h, 10 µM, compound concentration 10 uM, replicate number 1, timepoint 18 hours
I'd appreciate a reply containing only the number, no unit.

Cc1cc(=O)n(C)c2cc(N3C(=O)CC[C@H](NS(=O)(=O)CC(C)C)[C@H]3c3ccc(Cl)cc3)ccc12: 0.21
CN(C)C/C=C/C(=O)Nc1ccc(C(=O)N2CCCC(Nc3ncc(Cl)c(-c4c[nH]c5ccccc45)n3)C2)cc1 (configuration not stated): -0.42
O=C(NCCO)c1cccc(-c2cc(Nc3ccc(OC(F)(F)F)cc3)ncn2)c1: 0.05
Cc1ccccc1C#Cc1ccc(CCC(=O)O)cc1: 0.73
COc1ccc2c(c1)C(C(=O)N(Cc1ccc(N(C)C)cc1)c1ccc(C(C)C)cc1)CCC2.Cl (configuration not stated): 0.43
OCCCNc1cc(-c2ccnc(Nc3cccc(Cl)c3)n2)ccn1: -0.38
CN(c1ncccc1CNc1ccnc(-c2nc3c(F)c(Cl)ccc3[nH]2)n1)S(C)(=O)=O: 0.93
CS(=O)(=O)c1ccc(C(=O)Nc2ccc(Cl)c(-c3ccccn3)c2)c(Cl)c1: 0.81
CCCn1c(=O)c2[nH]c(C3CCCC3)nc2n(CCC)c1=O: 0.81
CCCN[C@H]1CCc2nc(N)sc2C1.Cl.Cl: 0.97

Sample O=C(O)CCC/C=C\C[C@H]1C(=O)C[C@@H](O)[C@@H]1/C=C/[C@@H](O)CCc1ccccc1 ; Growth Rate observed: 1

Note to self: Growth Rate recorded for CCCC(CCC)C(=O)O was 0.94

The recorded Growth Rate for entry Cc1ccccc1N1CCN(CCc2nnc3n2CCCC3)CC1.Cl [DAPIPRAZOLE HYDROCHLORIDE] equals 0.93

// Growth Rate value for COc1ccc2c(c1OCc1ccccc1)C[C@@H](C(=O)O)N(C(=O)C(c1ccccc1)c1ccccc1)C2 : 0.8

What the record says about CCn1c(-c2nc3cc(C(=O)N4CCCC(N)C4)ccc3n2C)cc2ccccc21.Cl (configuration not stated) : Growth Rate is 0.73

The value of Growth Rate measured for the compound COc1cc2nc(N3CCN(C(=O)c4ccco4)CC3)nc(N)c2cc1OC.Cl [PRAZOSIN HYDROCHLORIDE] turned out to be 0.88

Input CSc1cc2c(cc1C(F)(F)F)N(C(=O)Nc1cccnc1)CC2 . Output Growth Rate: 0.75

The compound listed as CC(C)(O)C(=O)N1CCN(c2ccc(C(F)(F)F)c(C3=C(c4c[nH]c5ccccc45)C(=O)NC3=O)c2)CC1 shows Growth Rate equal to 0.44

GET /value?item= Cc1nc[nH]c1CCN.Cl &field=Growth Rate returns 0.92

# Growth Rate of O=C(NC[C@@H]1[C@H]2CN(C(=O)OCc3cc(C(F)(F)F)cc(C(F)(F)F)c3)C[C@@H]12)c1ccc2[nH]nnc2c1 = 0.65

compound CC(C)CCC[C@@H](C)[C@H]1CC[C@H]2[C@@H]3[C@H](O)C=C4C[C@@H](O)CC[C@]4(C)[C@H]3CC[C@]12C , Growth Rate observed: 0.84

Memo: CNc1nc(NCc2ncccn2)c2c(-c3ccc4ncccc4c3)c[nH]c2n1 , reported Growth Rate: -0.23

Looking up NCCc1cn(S(=O)(=O)c2c(Cl)nc3sccn23)c2ccccc12.O=C(O)C(=O)O , I found its Growth Rate recorded as 0.4

Just so you know, measured Growth Rate for O=C(O)COc1cccc(-c2ocnc2-c2nc(-c3ccccc3)c(-c3ccccc3)o2)c1 came out at 0.67

---

# reported Growth Rate; entries follow
- Test system: HEK-293T
- MEASUREMENT NOTES: Incucyte cell viability with HEK293T; also: unitless GR value; below 1 slowed growth and below 0 cell loss
- Assay type: toxicity, cell-based
- CONDITION INFO: human, 6 h, 10 µM, compound concentration 10 uM, replicate number 2, timepoint 6 hours
When you answer, write just the number.

C[C@@H](O[C@H]1OCCN(Cc2n[nH]c(=O)[nH]2)[C@H]1c1ccc(F)cc1)c1cc(C(F)(F)F)cc(C(F)(F)F)c1 [APREPITANT]: 0.66

Summary line: CC(C)(O)C(=O)N1CCN(c2ccc(C(F)(F)F)c(C3=C(c4c[nH]c5ccccc45)C(=O)NC3=O)c2)CC1 , HEK-293T, reported Growth Rate = 0.88

Tested system HEK-293T; Growth Rate recorded for CC[C@H](Nc1ncnc2[nH]cnc12)c1nc2cccc(F)c2c(=O)n1-c1ccccc1 was 0.76

// assay HEK-293T, entry CN(C(=O)c1ccccc1)c1cc(N(C)c2ccc3c(c2)CCc2ccc(C(=O)NCCN4CCOCC4)cc2C3=O)ccc1F , Growth Rate value = 0

Entry NC(N)=Nc1nc(CSCCC(N)=NS(N)(=O)=O)cs1 under HEK-293T had Growth Rate of 0.45

Reported HEK-293T Growth Rate for item CN1CCN(c2cc(-c3ccccc3)nc(N)n2)CC1 was 0.96

# value of Growth Rate, HEK-293T, item COC(=O)Nc1nc2ccc(C(=O)c3cccs3)cc2[nH]1 = -0.49

Summary: CCCN[C@H]1CCc2nc(N)sc2C1.Cl.Cl , HEK-293T, Growth Rate = 0.07

HEK-293T assay, compound Cc1cc(Cn2nnc3c(-c4ccco4)nc(N)nc32)ccc1N , recorded Growth Rate = 0.84

---

Measured Growth Rate, listed per entry for reference.
- Tested on: U2OS
- MEASUREMENT NOTES: Incucyte cell viability with U2OS; also: unitless GR value; below 1 slowed growth and below 0 cell loss
- Format: toxicity, cell-based
- CONDITION INFO: human, 18 h, 10 µM, compound concentration 10 uM, replicate number 1, timepoint 18 hours
The answer should be a number; do not append a unit.

Nc1nc(-c2ccco2)c2cnn(Cc3ccccc3F)c2n1: 0.95
CN[C@@H](C)C(=O)N[C@H](C(=O)N1CCC[C@H]1C(=O)Nc1snnc1-c1ccccc1)C1CCCCC1: 0.87
COCCn1c(C)c(C)s/c1=N\C(=O)C1C(C)(C)C1(C)C: 1
COc1ccc(-n2c(C)c([N+](=O)[O-])c3ccc(O)cc32)cc1: 0.7
Cl.NCCc1c[nH]c2ccc(O)cc12 [SEROTONIN HYDROCHLORIDE]: 0.67

Noted for Cc1cc(O)c(-c2ccc([C@@H](C)CN(C)C)cc2)c2c1[nH]c(=O)c1sccc12 : its Growth Rate reads 0.13

// Growth Rate value for N[C@@H](CCP(=O)(O)O)C(=O)O : 0.86

Item: CC(C)c1noc(N2CCC(COc3ccc(-c4ccc(S(C)(=O)=O)cc4)nc3)CC2)n1 | Growth Rate: 0.91

The recorded Growth Rate for Cc1sc2c(c1C)C(c1ccc(Cl)cc1)=N[C@@H](CC(=O)NCCCCCCCCNC(=O)COc1cccc3c1C(=O)N(C1CCC(=O)NC1=O)C3=O)c1nnc(C)n1-2 (some centres not stated) is 0.5
